A collection of compounds and their measured pEC50
Test system: Jump-In T-REx CHO-K1 BLA cells
test_details: cells
Assay type: cell-based
setup_conditions: 0% FBS 4Hr; read-out: TETCHO: Counterscreen EC50
Positions of bridges follow the written chain, without caps; N, C: chain ends. Non-standard residues stand in square brackets, D forms with d. Residues, ends and D or L forms follow the SMILES beside them. tBuAla = CC(C)(C)C[C@H](N)C(=O)O; R8 = C=CCCCCCC[C@@](C)(N)C(=O)O; S5 = C=CCCC[C@](C)(N)C(=O)O
// pEC50: -log10(molar conc.)

Example entries and their recorded answers appear below.
CC(=O)N[C@@H](CCCCN)C(=O)N[C@@H](CCCCN)C(=O)N[C@H](C(=O)N[C@@H](CO)C(=O)N[C@@H](Cc1ccccc1)C(=O)N[C@]1(C)CCCCCCC=CCCC[C@@](C)(C(N)=O)NC(=O)[C@H](CC(C)(C)C)NC(=O)[C@H](CC(C)C)NC(=O)[C@H](C)NC(=O)[C@H](Cc2c[nH]c3ccccc23)NC(=O)[C@H](Cc2ccc(O)cc2)NC(=O)[C@H](CCC(=O)O)NC1=O)[C@@H](C)O [MP-152] (Ac-KKTSF[R8]EYWAL[tBuAla][S5]-NH2; staple 6-13): 4.44
CC(=O)N[C@@H](CC(C)C)C(=O)N[C@H](C(=O)N[C@@H](Cc1ccccc1)C(=O)N[C@]1(C)CCCCCCC=CCCC[C@@](C)(C(=O)N[C@@H](CO)C(=O)N[C@@H](C)C(=O)N[C@@H](C)C(N)=O)NC(=O)[C@H](CC2CCC2)NC(=O)[C@H](Cc2c[nH]cn2)NC(=O)[C@H](C)NC(=O)[C@H](Cc2c[nH]c3ccccc23)NC(=O)[C@H](Cc2ccc(O)cc2)NC(=O)[C@H](CCC(=O)O)NC1=O)[C@@H](C)O [MP-501, ATSP-7041 (Q8H)]: 4.72

The record that follows has no pEC50 shown yet.
Query: Request body: readout pEC50, system Jump-In T-REx CHO-K1 BLA cells, query CC(=O)N[C@@H](CCCCN)C(=O)N[C@@H](CCCCN)C(=O)N[C@H](C(=O)N[C@@H](CO)C(=O)N[C@@H](Cc1ccccc1)C(=O)N[C@]1(C)CCCCCCC=CCCC[C@@](C)(C(N)=O)NC(=O)[C@H](CC(C)C)NC(=O)[C@H](CC(C)C)NC(=O)[C@H](C)NC(=O)[C@H](Cc2c[nH]c3ccccc23)NC(=O)[C@H](Cc2ccc(O)cc2)NC(=O)[C@H](CCC(=O)O)NC1=O)[C@@H](C)O [MP-142] . Return the value.
Reply: 4.70
